In this section we review reported Ki values for a set of compounds.
# System: Carbonic anhydrase 1 (Homo sapiens, UniProt P00915)
# Sequence (P00915 whole entry): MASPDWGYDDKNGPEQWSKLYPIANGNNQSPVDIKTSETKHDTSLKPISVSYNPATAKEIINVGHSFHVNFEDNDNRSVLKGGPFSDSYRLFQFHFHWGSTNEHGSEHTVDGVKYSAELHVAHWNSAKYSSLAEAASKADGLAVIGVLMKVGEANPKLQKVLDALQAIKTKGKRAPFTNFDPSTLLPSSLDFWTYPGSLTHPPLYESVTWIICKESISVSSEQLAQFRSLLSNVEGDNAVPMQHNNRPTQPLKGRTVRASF
# Protocol notes: Inhibition of recombinant human carbonic anhydrase 1 preincubated with enzyme for 15 mins by phenol red dye based stopped flow CO2 hydrase assay
Record the value in nM, omitting the unit from your answer.

Nc1nn2c(-c3cccs3)ccnc2c1/N=N/c1ccc(S(N)(=O)=O)cc1	1150
Nc1nn2c(-c3ccc(F)cc3)ccnc2c1/N=N/c1ccc(S(N)(=O)=O)cc1	681
Nc1nn2c(-c3ccc(Br)cc3)ccnc2c1/N=N/c1ccc(S(N)(=O)=O)cc1	768
Cc1ccc(-c2ccnc3c(/N=N/c4ccc(S(N)(=O)=O)cc4)c(N)nn23)cc1	1330
Nc1nn2cc(-c3ccccc3)[nH]c2c1/N=N/c1ccc(S(N)(=O)=O)cc1	957

Ask: Can you share its Ki? I mean this compound: `Cc1ccc(-c2cn3nc(N)c(/N=N/c4ccc(S(N)(=O)=O)cc4)c3[nH]2)cc1`
Result: 1200

Ask: Can you share its Ki? I mean this compound: `Nc1nn2cc(-c3ccc(F)cc3)[nH]c2c1/N=N/c1ccc(S(N)(=O)=O)cc1`
Result: 769
